- Test system: P. falciparum stage V gametocytes
- Set-up: BacTiter-Glo ATP luminescence viability of purified stage V gametocytes in 384-well plates, per cent inhibition versus DMSO
- studyConditions: 48 h, 5 µM; inhibitor
About 3,200 (25%) of roughly 13,000 compounds showed an effect of 50% or more. The list shows a part of the results.
readoutLabel: % Inhibition (%)
Give a bare numeral; the unit % is implied.

# count of solved cases: 8
Oc1ccc(CCNc2nc(NCCCOc3cccc(-c4ccccc4)c3)nc(N3CCNCC3)n2)cc1 [TCMDC-134043] | -9.264
CN(/N=C/c1ccc(Cl)cc1)c1nc(NCCc2ccc(O)cc2)nc(N2CCNCC2)n1 [TCMDC-138544] | 44.17
CC(C)CCNC(=O)C1Cc2c([nH]c3ccc(Br)cc23)C2(CCN(CCc3ccccc3)CC2)N1 (stereo not drawn) [TCMDC-141179] | 47.91
Cc1ccc2[nH]c3c(c2c1)CC(C(=O)NCCC(C)C)NC31CCN(Cc2ccccc2)CC1 (stereo not drawn) [TCMDC-141090] | 28.05
Cc1nc(-c2cccc(NC(C)C(=O)Nc3cc(C(F)(F)F)ccc3N3CCOCC3)c2)cs1 (stereo not drawn) [TCMDC-125304] | -35
Cc1cc(OCCCNc2nc(NCCc3ccc(O)cc3)nc(N3CCNCC3)n2)c(Cl)c(C)c1Cl [TCMDC-134048] | -28.15
CC(C)CCNC(=O)C1Cc2c([nH]c3ccc(Br)cc23)C2(CCN(Cc3ccccc3)CC2)N1 (stereo not drawn) [TCMDC-141178] | 102.8
CS(=O)(=O)c1cccc(-c2cnc3[nH]cc(-c4ccc(C(=O)O)cc4)c3c2)c1 [TCMDC-136271] | 0.4612

Problem: Need % Inhibition, item Cc1c(CN2CCCCC2)cccc1OCCCNc1nc(NCCc2ccc(O)cc2)nc(N2CCNCC2)n1 [TCMDC-134046]
Solution: 87.79

Problem: Need % Inhibition, item C=C[C@]1(C)C[C@@H](OC(=O)c2cncn(COC)c2=O)[C@]2(C)[C@H](C)CC[C@]3(CCC(=O)[C@H]32)[C@@H](C)[C@@H]1O [TCMDC-141314]
Solution: 6.014

Problem: Need % Inhibition, item Oc1ccc(CCNc2nc(NCCOc3cccc4ccccc34)nc(N3CCNCC3)n2)cc1 [TCMDC-134132]
Solution: -65.6

Problem: Need % Inhibition, item COc1ccc2c(c1)[nH]c1c(/C=C/c3ccc([N+](=O)[O-])cc3)nccc12 [TCMDC-125486]
Solution: 8.204

---

- Test system: P. falciparum stage V gametocytes
- Parameters: BacTiter-Glo ATP luminescence viability of purified stage V gametocytes in 384-well plates, per cent inhibition versus DMSO
- studyConditions: 48 h, 5 µM; inhibitor
Out of some 13,000 compounds screened, about 3,200 (25%) showed an effect of 50% or more. This is one part of the list.
Listed here: items and their measured % Inhibition.
Give a bare numeral; the unit % is implied.

# count of solved cases: 5
COc1ccccc1/C=C/C(=O)NCCC1CCN(CCCCCNC(=O)/C=C/c2ccc(Cl)c(Cl)c2)CC1 [TCMDC-139999] | 48.92
O=C(/C=C/c1ccccc1Cl)Nc1ccc(Br)c(OCCN2CCN(CCN3CCCC3)CC2)c1 [TCMDC-140961] | 38.25
CN(C)C(=O)c1ccc(CN(Cc2cccc(OC(C)(C)C)c2)Cc2ccc3c(c2)OCCO3)cc1 [TCMDC-136614] | 66.69
O=C(C=Cc1ccc(Cl)c(Cl)c1)NCCCCCN1CCC(CCNC(=O)/C=C/c2ccccc2)CC1 [TCMDC-139566] | 81.69
COc1cccc2cc(C(=O)N[C@@H](CC(C)C)C(=O)N[C@H](/C=N/N(C)C(=O)OC(C)(C)C)CC(=O)OC(C)(C)C)oc12 [TCMDC-136092] | 4.382

Problem: Query % Inhibition on P. falciparum stage V gametocytes for CS(=O)(=O)Cc1ccc(Nc2nccc(-c3c(-c4cccc(C(=O)Nc5c(F)cccc5F)c4)nn4ccccc34)n2)cc1 [TCMDC-135742]
Solution: -95.17

Problem: Query % Inhibition on P. falciparum stage V gametocytes for NC(=O)c1cc(-c2ccccc2)cc2c(C3CCC(NCc4ccccc4)C3)c[nH]c12 (centres unmarked) [TCMDC-136335]
Solution: 119.1

Problem: Query % Inhibition on P. falciparum stage V gametocytes for Cc1ccc2cc(C3NC(=O)c4ccccc4N3)c(Cl)nc2c1 (centres unmarked) [TCMDC-124480]
Solution: -10.78

Problem: Query % Inhibition on P. falciparum stage V gametocytes for COc1ccc(Br)cc1/C=C/C(=O)Nc1cccc(C2CCN(C)CC2)c1 [TCMDC-133709]
Solution: 17.69

Problem: Query % Inhibition on P. falciparum stage V gametocytes for O=C(Nc1ccc(F)c(F)c1)c1ccc(CN2CCCN(Cc3cccc(F)c3)CC2)cc1 [TCMDC-136389]
Solution: 9.307

Problem: Query % Inhibition on P. falciparum stage V gametocytes for CCCNc1ccc(-c2cc(C(N)=O)c3[nH]cc(C4CCN(S(=O)(=O)CC)CC4)c3c2)cn1 [TCMDC-136721]
Solution: 8.74

Problem: Query % Inhibition on P. falciparum stage V gametocytes for FC(F)(F)c1ccc(Nc2nnnc3ccccc23)cc1 [TCMDC-125603]
Solution: 38.58

Problem: Query % Inhibition on P. falciparum stage V gametocytes for CC(C)(C)c1cc(Cn2ccnc2)cc(C(C)(C)C)c1O [TCMDC-131317]
Solution: -23.04

Problem: Query % Inhibition on P. falciparum stage V gametocytes for O=C(C=Cc1ccc(Cl)c(Cl)c1)NCCCCCN1CCC(CCNC(=O)C(c2ccccc2)c2ccccc2)CC1 [TCMDC-139570]
Solution: 77.62

Problem: Query % Inhibition on P. falciparum stage V gametocytes for Oc1cccc2c1CC(NCc1ccccc1)CC2 (centres unmarked) [TCMDC-137987]
Solution: 8.096

Problem: Query % Inhibition on P. falciparum stage V gametocytes for CC(=O)Nc1ccc(CN(Cc2cccc(OC(C)(C)C)c2)Cc2ccc3c(c2)OCCO3)cc1 [TCMDC-136613]
Solution: 87.49

Data origin: paper PMC4552634
